# test.method.notes: Stability of the analytes in plasma (bench top, autosampler, freeze-thaw, long-term)
# Assay type: physicochemical, human
# condition.notes: plasma, higher QC level (RIB 2500, ABE 1500, PAL 250, ANA 100, LET 250, FUL 500 ng/mL), N = 3
quantity.name: Stability Bias (%) Long-Term (2 Weeks, −18 °C)

Data request: Check the records and state Stability Bias (%) Long-Term (2 Weeks, −18 °C) for CN(C)C(=O)c1cc2cnc(Nc3ccc(N4CCNCC4)cn3)nc2n1C1CCCC1
Data returned: −10.69

I = C[C@]12CC[C@@H]3c4ccc(O)cc4C[C@@H](CCCCCCCCC[S+]([O-])CCCC(F)(F)C(F)(F)F)[C@H]3[C@@H]1CC[C@@H]2O (stereo partly drawn)
II = N#Cc1ccc(C(c2ccc(C#N)cc2)n2cncn2)cc1
III = CC(=O)c1c(C)c2cnc(Nc3ccc(N4CCNCC4)cn3)nc2n(C2CCCC2)c1=O
IV = CCN1CCN(Cc2ccc(Nc3ncc(F)c(-c4cc(F)c5nc(C)n(C(C)C)c5c4)n3)nc2)CC1
V = CC(C)(C#N)c1cc(Cn2cncn2)cc(C(C)(C)C#N)c1
Data request: Please rank these compounds by Stability Bias (%) Long-Term (2 Weeks, −18 °C) in descending order. Reply format: the labels, ordered as requested.
Data returned: IV, V, I, III, II

* * *

# test.method.notes: Stability of the analytes in plasma (bench top, autosampler, freeze-thaw, long-term)
# Assay type: physicochemical, human
# condition.notes: processed plasma sample, higher QC level (RIB 2500, ABE 1500, PAL 250, ANA 100, LET 250, FUL 500 ng/mL), N = 3
quantity.name: Stability Bias (%) Autosampler (10 h, 10 °C)

Data request: Return value of Stability Bias (%) Autosampler (10 h, 10 °C) for input CCN1CCN(Cc2ccc(Nc3ncc(F)c(-c4cc(F)c5nc(C)n(C(C)C)c5c4)n3)nc2)CC1 , no commentary.
Data returned: 14.88

1 = CN(C)C(=O)c1cc2cnc(Nc3ccc(N4CCNCC4)cn3)nc2n1C1CCCC1
2 = N#Cc1ccc(C(c2ccc(C#N)cc2)n2cncn2)cc1
Data request: I would appreciate it if you could say which entry, 1 or 2 , has the lower Stability Bias (%) Autosampler (10 h, 10 °C) value. When you have decided, please share the label of that item.
Data returned: 1

Data provenance is paper PMC9147789.
